The measured values listed here are drawn from patent US20230407243A1.

Field: Fold changes of MICs. Provide a value for each of the compounds that follow.
Test system: EKO-35 araC::emrAB Pore
Protocol Text: MIC susceptibility profiling, porinated efflux platform
Assay type: cell-based, Escherichia coli
Measurement Conditions: EKO-35 araC::emrAB Pore compared to EKO-35-Pore
Answer with a number only, understood to be in fold.

Quick note, Fold changes of MICs for N#CC(=NNc1cccc(C(F)(F)F)c1)C(=O)c1ccsc1 landed at 1

Form field Fold changes of MICs, entry CO[C@@H]1[C@@H](OC(N)=O)[C@@H](O)[C@H](Oc2ccc3c(O)c(NC(=O)c4ccc(O)c(CC=C(C)C)c4)c(=O)oc3c2C)OC1(C)C : 8

Value of Fold changes of MICs reported for the compound CC[n+]1c(-c2ccccc2)c2cc(N)ccc2c2ccc(N)cc21 [ethidium bromide] is 1

Data point: NC[C@H]1O[C@H](O[C@H]2[C@H](O)[C@@H](O[C@H]3O[C@H](CO)[C@@H](O)[C@H](N)[C@H]3O)[C@H](N)C[C@@H]2N)[C@H](O)[C@@H](O)[C@@H]1O ; Fold changes of MICs = 1

###

System: wild-type (WT) K-12-Pore
Protocol Text: microbe, parasite or virus in culture
Type: cell-based, Escherichia coli
Measurement Conditions: Table 14A; porinated; technical duplicate
So basically: Minimum inhibitory concentration, K-12 (WT)-Pore at 300 µg/mL or higher? That is Condition met. Lower than 300 µg/mL? That is Condition not met.

Query string: Does the reported Minimum inhibitory concentration, K-12 (WT)-Pore for N#CC(C#N)=NNc1cccc(Cl)c1 fall at or above the 300 µg/mL mark?
Result string: Condition not met

Query string: Has Nc1ccccc1SCc1nc(-c2ccc(Cl)cc2)no1 a recorded Minimum inhibitory concentration, K-12 (WT)-Pore greater than or equal to 300 µg/mL?
Result string: Condition not met

Query string: Does Minimum inhibitory concentration, K-12 (WT)-Pore meet or surpass 300 µg/mL for Cn1cc(Br)c(-c2cccc(NC(=O)Nc3ccc(OC(F)(F)F)cc3)c2)n1 ?
Result string: Condition met

Query string: Answer whether Minimum inhibitory concentration, K-12 (WT)-Pore of N#Cc1ccc(-c2c(NC(=O)C(Cl)Cl)oc(-c3cccs3)c2C#N)cc1 is greater than or equal to 300 µg/mL.
Result string: Condition met

Query string: Minimum inhibitory concentration, K-12 (WT)-Pore >= 300 µg/mL for N#CC(=NNc1ccc(F)c(Cl)c1)C(=O)c1ccc(Cl)cc1 ?
Result string: Condition met

Query string: Quick check, Minimum inhibitory concentration, K-12 (WT)-Pore >= 300 µg/mL? O=c1oc(-c2ccccc2Cl)nn1-c1ccc(C(F)(F)F)cn1
Result string: Condition met

Query string: Does Minimum inhibitory concentration, K-12 (WT)-Pore meet or surpass 300 µg/mL for O=C(NC(=O)N1CCc2c([nH]c3ccccc23)C1C(F)(F)F)c1ccccc1 (centres unmarked) ?
Result string: Condition met

Query string: Hello, I need to know if O=[N+]([O-])c1ccc2c(c1)C(=NO)c1cc([N+](=O)[O-])ccc1-2 has measured Minimum inhibitory concentration, K-12 (WT)-Pore not below 300 µg/mL. Thanks!
Result string: Condition not met

Query string: hey, is Minimum inhibitory concentration, K-12 (WT)-Pore for this one >= 300 µg/mL? C=C1CCO[C@]2([C@@H](O)[C@@](C)(O)CO)NC(=O)[C@@]1(O)NC2=O
Result string: Condition not met

Query string: Evaluate CC(C)c1ccc(C=C(C#N)c2nc3ccccc3[nH]2)cc1 : Minimum inhibitory concentration, K-12 (WT)-Pore at minimum 300 µg/mL?
Result string: Condition met

Query string: Given the entry C[C@H](CCC(=O)NCCS(=O)(=O)[O-])[C@H]1CC[C@H]2[C@@H]3CC[C@@H]4C[C@H](O)CC[C@]4(C)[C@H]3C[C@H](O)[C@]12C.[Na+] [sodium taurodeoxycholate] , answer whether its Minimum inhibitory concentration, K-12 (WT)-Pore meets or surpasses 300 µg/mL.
Result string: Condition met
